Taken from patent US12576099B2.

- Tested on: HEK293T cells
- experiment description: Translation efficiency of different capped luciferase mRNAs
- Type: cell-based
- condition set: relative to m6A
- From the text: […] The relative fluorescence intensity is proportional to the translation efficiency of mRNA.
measured attribute: Multiple of m6A (relative fluorescence intensity)

-- ask For the compound COC(C)[C@H]1[C@@H](O)[C@H]([n+]2cn(C)c3c(=O)[nH]c(N)nc32)O[C@@H]1COP(=O)(O)OP(=O)(O)OP(=O)(O)OC[C@H]1O[C@@H](n2cnc3c(N)ncnc32)[C@H](OC)[C@@H]1OP(=O)(O)OC[C@H]1O[C@@H](n2cnc3c(=O)[nH]c(N)nc32)[C@H](O)[C@@H]1O (some centres unmarked) , what Multiple of m6A (relative fluorescence intensity) is on record?
-- reply 4.3

-- ask Could you share which Multiple of m6A (relative fluorescence intensity) value was measured for CO[C@@H]1[C@H](OP(=O)(O)OC[C@H]2O[C@@H](n3cnc4c(=O)[nH]c(N)nc43)[C@H](O)[C@@H]2O)[C@@H](COP(=O)(O)OP(=O)(O)OP(=O)(O)OC[C@H]2O[C@@H]([n+]3cn(C)c4c(=O)[nH]c(N)nc43)[C@H](O)[C@@H]2O)O[C@H]1n1cnc2c(N)ncnc21 [N-7113, reference compound] ?
-- reply 2.6

====

- experiment description: Characterization of lipid nanoparticles encapsulating Fluc-mRNA prepared from different cap structures
- Format: physicochemical
- condition set: LNP (YK-009/DSPC/cholesterol/DMG-PEG2000) with Fluc-mRNA transcribed using the named cap analog
measured attribute: Particle size (nm)
Give just the numeric value; nm need not be written.

-- ask GET /values?readout=Particle size&item= COC(C)[C@H]1[C@@H](O)[C@H]([n+]2cn(C)c3c(=O)[nH]c(N)nc32)O[C@@H]1COP(=O)(O)OP(=O)(O)OP(=O)(O)OC[C@H]1O[C@@H](n2cnc3c(N)ncnc32)[C@H](OC)[C@@H]1OP(=O)(O)OC[C@H]1O[C@@H](n2cnc3c(=O)[nH]c(N)nc32)[C@H](O)[C@@H]1O (stereo partly drawn)
-- reply 78.42

-- ask Suppose we examine the compound COC[C@@H]1[C@H](OP(=O)(O)OC[C@H]2O[C@@H](n3cnc4c(=O)[nH]c(N)nc43)[C@H](O)[C@@H]2O)[C@@H](COP(=O)(O)OP(=O)(O)OP(=O)(O)OC[C@H]2O[C@@H]([n+]3cn(C)c4c(=O)[nH]c(N)nc43)[C@H](O)[C@@H]2O)O[C@H]1n1cnc2c(N)ncnc21 ; what Particle size value has been reported?
-- reply 79.34

-- ask Look up Particle size: CO[C@@H]1[C@H](OP(=O)(O)OC[C@H]2O[C@@H](n3cnc4c(=O)[nH]c(N)nc43)[C@H](O)[C@@H]2O)[C@@H](COP(=O)(O)OP(=O)(O)OP(=O)(O)OC[C@H]2O[C@@H]([n+]3cn(C)c4c(=O)[nH]c(N)nc43)[C@H](O)[C@@H]2C(F)F)O[C@H]1n1cnc2c(N)ncnc21
-- reply 69.64

====

- experiment description: Characterization of lipid nanoparticles encapsulating Fluc-mRNA prepared from different cap structures
- Type: physicochemical
- condition set: LNP with Fluc-mRNA transcribed using the named cap analog
measured attribute: PDI
Answer as a number with no unit attached.

-- ask # input compound: CO[C@@H]1[C@H](OP(=O)(O)OC[C@H]2O[C@@H](n3cnc4c(=O)[nH]c(N)nc43)[C@H](O)[C@@H]2O)[C@@H](COP(=O)(O)OP(=O)(O)OP(=O)(O)OC[C@H]2O[C@@H]([n+]3cn(C)c4c(=O)[nH]c(N)nc43)[C@H](O)[C@@H]2O)O[C@H]1n1cnc2c(N)ncnc21 [N-7113, reference compound] ; wanted: its PDI
-- reply 0.078

-- ask What does the data say about its PDI? Entry: COC1[C@H](n2cnc3c(N)ncnc32)O[C@H](COP(=O)(O)OP(=O)(O)OP(=O)(O)OC[C@@]23COC([C@H]([n+]4cn(C)c5c(=O)[nH]c(N)nc54)O2)[C@H]3O)[C@H]1OP(=O)(O)OCC1OC(n2cnc3c(=O)[nH]c(N)nc32)C(O)C1O (stereo partly shown) [Compound 14, reference compound]
-- reply 0.073

-- ask Entry CO[C@@H]1[C@H](OP(=O)(O)OC[C@H]2O[C@@H](n3cnc4c(=O)[nH]c(N)nc43)[C@H](O)[C@@H]2O)[C@@H](COP(=O)(O)OP(=O)(O)OP(=O)(O)OC[C@H]2OC([n+]3cn(C)c4c(=O)[nH]c(N)nc43)[C@H](NC(C)=O)[C@@H](O)[C@@H]2O)O[C@H]1n1cnc2c(N)ncnc21 (stereo partly shown) has what PDI?
-- reply 0.055

-- ask Need PDI of COC[C@@H]1[C@H](OP(=O)(O)OC[C@H]2O[C@@H](n3cnc4c(=O)[nH]c(N)nc43)[C@H](O)[C@@H]2O)[C@@H](COP(=O)(O)OP(=O)(O)OP(=O)(O)OC[C@H]2O[C@@H]([n+]3cn(C)c4c(=O)[nH]c(N)nc43)[C@H](O)[C@@H]2O)O[C@H]1n1cnc2c(N)ncnc21 , thanks.
-- reply 0.043

-- ask Fill blank: measured PDI of the compound CO[C@@H]1[C@H](OP(=O)(O)OC[C@H]2O[C@@H](n3cnc4c(=O)[nH]c(N)nc43)[C@H](O)[C@@H]2O)[C@@H](COP(=O)(O)OP(=O)(O)OP(=O)(O)OC[C@@]2(CF)O[C@@H]([n+]3cn(C)c4c(=O)[nH]c(N)nc43)[C@H](O)[C@@H]2O)O[C@H]1n1cnc2c(N)ncnc21 is ____.
-- reply 0.055

-- ask Requested read-out: PDI. Entry: CCO[C@@H]1[C@H](OP(=O)(O)OC[C@H]2O[C@@H](n3cnc4c(=O)[nH]c(N)nc43)[C@H](O)[C@@H]2O)[C@@H](COP(=O)(O)OP(=O)(O)OP(=O)(O)OC[C@H]2O[C@@H]([n+]3cn(C)c4c(=O)[nH]c(N)nc43)[C@H](O)[C@@H]2O)O[C@H]1n1cnc2c(N)ncnc21 [CAP-2′O-ethyl, reference compound]
-- reply 0.035

-- ask Report PDI for CCN(CC)C(=O)[C@H]1[C@@H](O)[C@H]([n+]2cn(C)c3c(=O)[nH]c(N)nc32)O[C@@H]1COP(=O)(O)OP(=O)(O)OP(=O)(O)OC[C@H]1O[C@@H](n2cnc3c(N)ncnc32)[C@H](OC)[C@@H]1OP(=O)(O)OC[C@H]1O[C@@H](n2cnc3c(=O)[nH]c(N)nc32)[C@H](O)[C@@H]1O please.
-- reply 0.053
